settings: buffer; pH 7.4; 200.0 µM
measured.metric: solubility kinetic

These recorded examples may help you get a feel for the data.
[
  {
    "compound": "COc1ccc(OC)c(-c2csc(-c3cccs3)n2)c1",
    "observed": "< 0.6 µg/mL"
  },
  {
    "compound": "Nc1ccc(C(=O)Nc2ccccc2N)cc1",
    "observed": "> 34.1 µg/mL"
  }
]

Inquiry: Output solubility kinetic of "COc1ccc(-c2nonc2NC(=O)c2ccco2)cc1OC"
Reply text: > 47.3 µg/mL

Inquiry: Output solubility kinetic of "CN(CCc1ccccc1)Cc1c[nH]c2ccccc12.O=C(O)C(=O)O"
Reply text: > 53.2 µg/mL

Inquiry: Output solubility kinetic of "S=c1[nH]nc(Nc2ccccc2Cl)s1"
Reply text: > 36.6 µg/mL

----------
settings: buffer; pH 7.4; 200.0 µM
measured.metric: solubility kinetic

These recorded examples may help you get a feel for the data.
[
  {
    "smiles.record": "CCOC(=O)c1sc(=NC(=O)c2ccc(C)cc2)n(C)c1C",
    "solubility kinetic": "< 0.3 µg/mL"
  },
  {
    "smiles.record": "CCOc1ccccc1C(=O)NC1CCNCC1",
    "solubility kinetic": "> 37.2 µg/mL"
  }
]

From here, focus on the item given below.
Inquiry: Output solubility kinetic of "CN(C(=O)CCn1c(=S)oc2ccccc21)C1CCCCC1"
Reply text: > 47.8 µg/mL

----------
settings: buffer; pH 7.4; 200.0 µM
Measured solubility kinetic of individual entries

These recorded examples may help you get a feel for the data.
[
  {
    "compound": "O=C(c1nc(SCc2ccc([N+](=O)[O-])cc2)n2ccccc12)C(F)(F)F",
    "observed": "< 0.3 µg/mL"
  },
  {
    "compound": "CCc1cc2c(SCC(=O)NC3CC3)ncnc2s1",
    "observed": "> 44 µg/mL"
  },
  {
    "compound": "Cc1ccc(C(=O)Nc2ccc(N3CCN(C)CC3)cc2)c(Cl)c1",
    "observed": "> 51.6 µg/mL"
  },
  {
    "compound": "COc1ccc(C)cc1S(=O)(=O)NC(C)C(=O)NC1CC1 (centres undefined)",
    "observed": "> 46.9 µg/mL"
  },
  {
    "compound": "CN(C)c1nc(Nc2ccc(Cl)c(Cl)c2)nc(N(C)C)n1",
    "observed": "< 0.1 µg/mL"
  }
]

Inquiry: Output solubility kinetic of "Cc1ccc(-c2cc[n+](Cc3ccccc3)cc2)cc1.[Cl-]"
Reply text: > 44.4 µg/mL

Inquiry: Output solubility kinetic of "O=C(Cn1cc(C(F)(F)F)ccc1=O)NC1CCCC1"
Reply text: > 43.2 µg/mL

Inquiry: Output solubility kinetic of "CCCN(CC(=O)Nc1ccccc1OC)C(=O)c1ccc(=O)[nH]c1"
Reply text: > 51.5 µg/mL

Inquiry: Output solubility kinetic of "Cc1cc(C)c(C(=O)Nn2c(C)nc3ccccc3c2=O)cc1C"
Reply text: > 48.2 µg/mL

----------
Measured solubility kinetic of individual entries
settings: buffer; pH 7.4; 200.0 µM

These recorded examples may help you get a feel for the data.
[
  {
    "compound": "COC(=O)c1ccc(NC(=S)NCCCN2CCCC2=O)cc1",
    "solubility kinetic": "> 50.3 µg/mL"
  },
  {
    "compound": "Cc1cccnc1N1C(=O)c2ccc(C(=O)O)cc2C1=O",
    "solubility kinetic": "> 42.3 µg/mL"
  },
  {
    "compound": "O=C(O)c1ccccc1NC(=O)C1C2CCC(O2)C1C(=O)O (stereo not given)",
    "solubility kinetic": "> 45.8 µg/mL"
  },
  {
    "compound": "CCC1Oc2ccc(C)cc2N(CC(=O)N2CCCC2)C1=O (stereo not given)",
    "solubility kinetic": "> 45.4 µg/mL"
  }
]

From here, focus on the item given below.
Inquiry: Output solubility kinetic of OCCN(CC#CCC(O)(c1ccccc1)C1CCCC1)CCO (stereo not given)
Reply text: > 49.7 µg/mL

----------
Measured solubility kinetic of individual entries
settings: buffer; pH 7.4; 200.0 µM

These recorded examples may help you get a feel for the data.
[
  {
    "compound": "Cc1cc(C)nc(NC(=O)c2ccccc2O)n1",
    "measured.metric": "solubility kinetic",
    "observed": "> 36.5 µg/mL"
  },
  {
    "compound": "Cc1ccccc1NC(=O)c1cc[n+]([O-])cc1",
    "measured.metric": "solubility kinetic",
    "observed": "> 34.2 µg/mL"
  }
]

Inquiry: Output solubility kinetic of "CC(=O)Cc1nsc(NC(=O)c2ccc(Cl)cc2Cl)n1"
Reply text: > 49.5 µg/mL

Inquiry: Output solubility kinetic of Cc1ccccc1C1NC(=S)NC2=C1C(=O)CCC2 (stereo not drawn)
Reply text: > 40.9 µg/mL

Inquiry: Output solubility kinetic of "CN1CCN(S(=O)(=O)c2cc([N+](=O)[O-])ccc2Cl)CC1"
Reply text: > 48 µg/mL

Inquiry: Output solubility kinetic of O=[N+]([O-])C1C(c2ccccc2)=NOC1c1ccccc1O (stereo not drawn)
Reply text: > 42.6 µg/mL

Inquiry: Output solubility kinetic of "O=C(CCC(=O)c1ccc(Br)cc1)Nc1ccc(F)cc1"
Reply text: < 0.7 µg/mL

Inquiry: Output solubility kinetic of "CC(=Nc1ccc2c(c1)CCC2)c1c(O)n(-c2ccccc2)c(=O)[nH]c1=O"
Reply text: < 0.3 µg/mL

Inquiry: Output solubility kinetic of "NC(=O)CSc1nccn1Cc1ccccc1"
Reply text: > 37.1 µg/mL

Inquiry: Output solubility kinetic of OC(CNCCc1c[nH]c2ccccc12)C(F)(F)F (stereo not drawn)
Reply text: > 40.8 µg/mL

Inquiry: Output solubility kinetic of "O=C(CCc1ccc(S(=O)(=O)N2CCOCC2)cc1)Nc1ccccc1F"
Reply text: > 58.9 µg/mL

Inquiry: Output solubility kinetic of "COc1ccc(C(=O)NCCNC(=O)c2ccc(C)nc2)cc1"
Reply text: > 47 µg/mL

Inquiry: Output solubility kinetic of "Cc1ccc(OCc2ccc(C(=O)NN)o2)c([N+](=O)[O-])c1"
Reply text: > 43.7 µg/mL

Inquiry: Output solubility kinetic of "CN1CCC(N(C)C(=O)c2cc(S(=O)(=O)N(C)c3ccccc3)ccc2Cl)CC1.Cl"
Reply text: > 70.9 µg/mL

Inquiry: Output solubility kinetic of "C#CCOc1ccc(Cl)cc1/C=C1/C(=O)ON=C1C"
Reply text: > 41.4 µg/mL

Inquiry: Output solubility kinetic of "O=C(c1ccccc1NS(=O)(=O)c1ccc(F)cc1F)N1CCCCC1"
Reply text: > 57.1 µg/mL

Inquiry: Output solubility kinetic of "CC(C)(C)NC(=S)NCC1CC1"
Reply text: > 27.9 µg/mL

Inquiry: Output solubility kinetic of "O=C(COC(=O)c1ccc(Cl)nc1)Nc1ccc2c(c1)OCO2"
Reply text: > 50.2 µg/mL

Inquiry: Output solubility kinetic of CC1CCC(NC(=O)CNC(=O)c2cccs2)CC1 (stereo not drawn)
Reply text: > 42.1 µg/mL

----------
settings: buffer; pH 7.4; 200.0 µM
Measured solubility kinetic of individual entries

[
  {
    "smiles.record": "O=C(c1ccc2nccnc2c1)N1CCN(c2ccccc2)CC1",
    "measured.metric": "solubility kinetic",
    "observed": "> 47.8 µg/mL"
  }
]

Inquiry: Output solubility kinetic of "COc1ccc(N2CCCC2=N)c(OC)c1.Cl"
Reply text: > 38.5 µg/mL

Inquiry: Output solubility kinetic of "O=C(CSc1ccc(F)cc1)Nc1ccc(C2SCCS2)cc1"
Reply text: < 0.8 µg/mL

Inquiry: Output solubility kinetic of "CCOC(=O)c1c(C=O)c2sc(C)cc2n1C"
Reply text: 1.5 µg/mL

Inquiry: Output solubility kinetic of "O=C(O)c1cc(-c2cccc([N+](=O)[O-])c2)nc2ccccc12"
Reply text: > 44.1 µg/mL

Inquiry: Output solubility kinetic of "Cc1ccc(NC(=O)COC(=O)c2cccnc2Cl)cc1S(=O)(=O)N1CCOCC1"
Reply text: 66 µg/mL

Inquiry: Output solubility kinetic of "Cl.O=C(c1cccc(S(=O)(=O)N2CCc3ccccc32)c1)N1CCN(CCO)CC1"
Reply text: > 67.8 µg/mL

Inquiry: Output solubility kinetic of "CC1CCN(CCc2nc3ccccc3[nH]2)CC1"
Reply text: 33.7 µg/mL

----------
settings: buffer; pH 7.4; 200.0 µM
Measured solubility kinetic of individual entries

These recorded examples may help you get a feel for the data.
[
  {
    "compound": "NC(=O)COc1ccc2cc(-c3ccc(F)cc3)c(=O)oc2c1",
    "solubility kinetic": "< 0.7 µg/mL"
  },
  {
    "compound": "CCN(CC)C(=O)C1CCCN(Cc2nc(-c3cnccn3)no2)C1 (centres undefined)",
    "solubility kinetic": "40.4 µg/mL"
  },
  {
    "compound": "O=C(N/N=C\\c1cccnc1)c1ccc(Cl)cc1Cl",
    "solubility kinetic": "> 44.1 µg/mL"
  }
]

From here, focus on the item given below.
Inquiry: Output solubility kinetic of "CCc1cccc(NS(=O)(=O)c2ccc3c(c2)NC(=O)CC(=O)N3)c1"
Reply text: > 53.9 µg/mL
